measurement-target: Arabidopsis HST (Arabidopsis thaliana)
Construct: GST (factor Xa cleavage site) (N); made in house; host or cells: Sf9 insect cells (baculovirus, pAcG3X), membrane fraction
Sequence (Q1ACB3 70-386): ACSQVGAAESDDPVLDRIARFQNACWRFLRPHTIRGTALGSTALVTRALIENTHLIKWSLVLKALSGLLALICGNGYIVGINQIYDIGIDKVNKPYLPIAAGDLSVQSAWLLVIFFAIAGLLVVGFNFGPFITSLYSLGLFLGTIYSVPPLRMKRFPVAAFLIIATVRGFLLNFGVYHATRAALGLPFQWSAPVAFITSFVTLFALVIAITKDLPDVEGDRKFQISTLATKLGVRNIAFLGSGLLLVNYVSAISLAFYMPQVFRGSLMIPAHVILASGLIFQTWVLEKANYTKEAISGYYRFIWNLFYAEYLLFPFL
experiment: HST total extraction (non TLC) assay, recombinant Arabidopsis HST from insect cells
Format: biochemical
Each entry below lists one item and its recorded Estimated IC50 (ppm) value.
Give a bare numeral; the unit ppm is implied.

Examples with answers:
>>> assay_value("C#Cn1c(=O)c(-c2c(F)ccc(F)c2Cl)c(O)c2nccnc21 [Compound 2.18]")
6
>>> assay_value("O=c1c(-c2c(Cl)ccc(Cl)c2Cl)c(O)c2nccnc2n1CC(F)F [Compound 2.14]")
9

From here, focus on the item given below.
Measured Estimated IC50 (ppm) of Cn1c(=O)c(-c2c(Cl)cccc2C(F)(F)F)c(O)c2nccnc21 [Compound 2.16] : 78

====

Each entry below lists one item and its recorded pest or weed control at 15.625 g/ha value.
Test system: weeds
experiment: Glasshouse weed control, HST inhibitors alone and with A22, post-emergence
Assay type: in vivo
condition-label: Digitaria sanguinalis, 336 h, DIGSA, 14 DAT, 15.625 g/ha alone, single replicate, read-out: % control score, Obs

>>> assay_value("CC1=NN(C)C(=O)C(c2c(C)cc(C)cc2C)C1=O (stereo not shown)")
"0%"

Measured pest or weed control at 15.625 g/ha of "O=c1c(-c2c(F)ccc(Br)c2Cl)c(O)c2cccnc2n1CC(F)F" : 0%

Measured pest or weed control at 15.625 g/ha of "O=c1c(-c2c(Cl)cccc2C(F)(F)F)c(O)c2nccnc2n1CC(F)F" : 20%

Measured pest or weed control at 15.625 g/ha of "O=S1(=O)C(c2ccc(Br)cc2C(F)(F)F)=C(O)c2nccnc2N1CC(F)F" : 0%

Measured pest or weed control at 15.625 g/ha of "O=c1c(-c2c(F)ccc(Cl)c2Cl)c(O)c2nccnc2n1CC(F)F" : 0%

Measured pest or weed control at 15.625 g/ha of "O=c1c(-c2cc(C(F)(F)F)ccc2Cl)c(O)c2nccnc2n1CC(F)F" : 2%

Measured pest or weed control at 15.625 g/ha of "O=c1c(-c2c(Cl)ccc(Cl)c2Cl)c(O)c2nccnc2n1CC(F)F" : 10%

====

System: weeds
experiment: Glasshouse weed control, HST inhibitors alone and with A22, pre-emergence
Assay type: in vivo
condition-label: 336 h, BRAPL, 14 DAT, HST inhibitor rate 62.5 g/ha, read-out: BRAPL Obs, % control score
Each entry below lists one item and its recorded pest or weed control at 62.5 g/ha value.
Give a bare numeral; the unit % is implied.

>>> assay_value("O=c1c(-c2c(F)ccc(Cl)c2Cl)c(O)c2nccnc2n1CC(F)F")
2
>>> assay_value("O=c1c(-c2c(Cl)cccc2C(F)(F)F)c(O)c2nccnc2n1CC(F)F")
10
>>> assay_value("CC1=NN(C)C(=O)C(c2c(C)cc(C)cc2C)C1=O (centres unmarked)")
0
>>> assay_value("O=S1(=O)C(c2ccc(Br)cc2C(F)(F)F)=C(O)c2nccnc2N1CC(F)F")
0

From here, focus on the item given below.
Measured pest or weed control at 62.5 g/ha of "O=c1c(-c2cc(C(F)(F)F)ccc2Cl)c(O)c2nccnc2n1CC(F)F" : 2
